Just for reference, patent US20240109910A1 is where these values come from.

- target.system: hCB2 receptor (Homo sapiens)
- Sequence (P34972 whole entry): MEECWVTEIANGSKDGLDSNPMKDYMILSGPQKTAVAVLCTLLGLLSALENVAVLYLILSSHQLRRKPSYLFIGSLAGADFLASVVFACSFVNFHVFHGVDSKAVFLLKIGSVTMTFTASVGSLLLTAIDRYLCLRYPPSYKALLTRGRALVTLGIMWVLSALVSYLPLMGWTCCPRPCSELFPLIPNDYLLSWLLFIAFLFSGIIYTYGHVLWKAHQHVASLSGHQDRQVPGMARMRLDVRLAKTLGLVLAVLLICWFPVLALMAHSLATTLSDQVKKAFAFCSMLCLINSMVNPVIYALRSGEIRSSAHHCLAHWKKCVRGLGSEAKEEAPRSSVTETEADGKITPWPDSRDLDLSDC
- test.details: Agonism of CB2 by detection of cAMP using HTRF
- Format: cell-based
assay.readout: EC50 (nM)
# unit: nM | format: bare number

Short answer for CC(C)(C)c1nnc(-c2nn(-c3cnccn3)c3c2CC2CCC3O2)s1 (stereo not shown) : EC50 was 0.04

###

- target.system: hCB2 receptor (Homo sapiens)
- test.details: Agonism of CB2 by detection of cAMP using HTRF
- Format: cell-based
- study.conditions: CHO cells stably expressing CB2 receptor, cAMP HTRF, forskolin-stimulated; average if tested more than once; read-out: hCB2 CHO EC50
In this section, each of the compounds is paired with its reported EC50.
Answer in nM, number only, no unit symbol.

Solved cases below.
compound="CC(C)(C)NC(=O)c1nn(-c2cnccn2)c2c1CC1CCC2O1 (stereo not shown)" target_system="hCB2 receptor (Homo sapiens)" number=3.8
compound="CC(C)(C)NC(=O)c1nn(-c2c[n+]([O-])ccn2)c2c1C1CCC(C2)O1 (stereo not shown)" target_system="hCB2 receptor (Homo sapiens)" number=1.98
compound="O=C(NC1(C(F)(F)F)CC1)c1nn(-c2c[n+]([O-])ccn2)c2c1CC1CCC2O1 (stereo not shown)" target_system="hCB2 receptor (Homo sapiens)" number=0.12

Please turn your attention to the following entry.
Please fill in: EC50 reported for CC(C)(C)NC(=O)c1c2c(nn1-c1c[n+]([O-])ccn1)C1CCC(C2)O1 (stereo not shown) = 7970

###

- target.system: hCB2 receptor (Homo sapiens)
- test.details: Agonism of CB2 by detection of cAMP using HTRF
- Type: cell-based
- study.conditions: CHO cells stably expressing CB2 receptor; normalized to DMSO and maximal activation (5 nM CP55940)
Quick rule: Emax of at least 90% means criterion met, below that means criterion not met.

molecule="O=C(NC12CC3CC(CC1C3)C2)c1nn(-c2cnccn2)c2c1CC1CCC2O1 (centres unmarked)" group_label="criterion met"

[ask] Check the entry CC(C)(C)NC(=O)c1c2c(nn1-c1cnccn1)CC1CCC2O1 (centres unmarked) : does Emax equal or exceed 90%?
[reply] criterion not met

[ask] Could you please find out whether CC(C)(C)c1nnc(-c2nn(-c3c[n+]([O-])ccn3)c3c2CC2CCC3O2)[s+]1[O-] (centres unmarked) has Emax that meets 90% or exceeds it?
[reply] criterion met

[ask] Decide: is the reported value of Emax for CC(C)(C)NC(=O)c1c2c(nn1-c1cnccn1)C1CCC(C2)O1 (centres unmarked) equal to or greater than 90%?
[reply] criterion not met

[ask] Could you please find out whether CC(C)(C)NC(=O)c1nn(-c2c[n+]([O-])ccn2)c2c1CC1CCC2O1 (centres unmarked) has Emax that meets 90% or exceeds it?
[reply] criterion met

###

Emax overview
- target.system: hCB1 receptor (Homo sapiens, UniProt P21554)
- Sequence (P21554 whole entry): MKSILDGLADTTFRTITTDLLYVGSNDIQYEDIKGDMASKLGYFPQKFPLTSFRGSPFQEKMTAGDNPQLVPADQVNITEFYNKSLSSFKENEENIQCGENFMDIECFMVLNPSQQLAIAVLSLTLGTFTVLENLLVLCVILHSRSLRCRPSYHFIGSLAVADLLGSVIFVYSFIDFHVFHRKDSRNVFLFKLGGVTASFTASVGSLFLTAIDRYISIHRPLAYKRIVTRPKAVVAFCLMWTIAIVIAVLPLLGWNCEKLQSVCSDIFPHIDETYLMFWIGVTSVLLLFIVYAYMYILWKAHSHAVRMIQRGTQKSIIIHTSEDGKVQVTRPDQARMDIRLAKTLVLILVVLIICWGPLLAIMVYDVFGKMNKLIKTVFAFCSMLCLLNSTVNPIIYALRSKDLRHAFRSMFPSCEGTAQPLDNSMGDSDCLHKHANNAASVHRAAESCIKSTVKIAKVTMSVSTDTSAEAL
- test.details: Agonism of CB1 by detection of cAMP using HTRF
- Format: cell-based
- study.conditions: CHO cells stably expressing CB1 receptor; normalized to DMSO and maximal activation (5 nM CP55940)
Please reply with the bare figure in % and do not write the unit itself.

Would you please look over these solved cases?
molecule="O=C(NC12CC3CC(CC1C3)C2)c1nn(-c2ccc(F)cc2F)c2c1CC1CCC2O1 (centres unmarked)" number=98
molecule="O=C(NC12CC3CC(CC1C3)C2)c1nn(-c2c[n+]([O-])ccn2)c2c1CC1CCC2O1 (centres unmarked)" number=94.9

Data point: CC(C)(C)c1nnc(-c2nn(-c3c[n+]([O-])ccn3)c3c2CC2CCC3O2)o1 (centres unmarked) ; Emax = 79.3

Just so you know, measured Emax for O=C(NC1(C(F)(F)F)CCC1)c1nn(-c2c[n+]([O-])ccn2)c2c1CC1CCC2O1 (centres unmarked) came out at 90.7
